- procedureSummary: Standard protocol for determination of kcat and KM (continuous spectrophotometric assay, Acetyl CoA hydrolysis at 235 nm)
- Format: biochemical
- studyConditions: purified protein; about 23° C.; pH 6.8; 0.2 mM acetyl CoA; glyphosate 0.125 to 10 mM
Km overview
Don't forget the unit after the value.

SEQ ID NO: 349: GAT polypeptide (protein, 21E11, GAT polypeptide) MIEVKPINAEDTYEIRHRILRPNQPLEACKYETDLLGGAFHLGGYYQGKLISIASFHQAEHSELEGQKQYQLRGMATLEGYREQKAGSTLIRHAEELLRKKGADLLWCNARTSVSGYYKKLGFSEQGEVYDIPPIGPHILMYKKLT
700 µM
SEQ ID NO: 386: GAT polypeptide (protein, 6_18C7, GAT polypeptide) MIEVKPINAEDTYEIRHRILRPNQPLEACRYETDLLGGTFHLGGYYRGKLISIASFHQAEHPELEGQKQYQLRGMATLEGYREQKAGSTLIRHAEELLRKKGADLLWCNARISASGYYKKLGFSEQGEVYDIPPVGPHILMYKKLT
1200 µM
SEQ ID NO: 381: GAT polypeptide (protein, 6_14D10, GAT polypeptide) MIEVKPINAEDTYEIRHRILRPNQPLEACMYETDLLGGTFHLGGYYRGKLISIASFHQAEHSELEGHKQYQLRGMATLEEYREQKAGSTLIRHAEELLRKKGADLLWCNARTSASGYYKKLGFSEQGGVYDIPPVGPHILMYKKLT
1500 µM
SEQ ID NO: 345: GAT polypeptide (protein, 19C6, GAT polypeptide) MIEVKPINAEDTYEIRHRILRPNQPLEACKYETDLLGGTFHLGGYYRGKLICIASFHQAEHSELEGQKQYQLRGMATLEGYREQKAGSTLIRHAEELLRKKGADLLWCNARTSVRGYYEKLGFSEQGGVYDIPPIGPHILMYKKLA
1100 µM
SEQ ID NO: 431: GAT polypeptide (protein, 9_24F6, GAT polypeptide) MIEVKPINAEDTYEIRHRILRPNQPLEACKYETDLLRGAFHLGGYYRGKLISIASFHQAEHSELEGQKQYQLRGMATLEGYREQKAGSTLIRHAEALLRKKGADLLWCNARTSASGYYKKLGFSEQGEVYDIPPTGPHILMYKKLT
900 µM

Report measured Km; entry is SEQ ID NO: 469: GAT polypeptide (protein, 1_2A12, GAT polypeptide) MIEVKPINAEDTYELRHRILRPNQPIEACMYESDLLRGSFHLGGFYRGKLISIASFHQAEQSELEGQKQYQLRGMATLEGYRDQKAGSTLIKHAEEILRKKGADLLWCNARTSAAGYYKRLGFSEQGEIFDTPPVGPHILMYKRLT
1300 µM
